System: UniProt P41595
Sequence (P41595 whole entry): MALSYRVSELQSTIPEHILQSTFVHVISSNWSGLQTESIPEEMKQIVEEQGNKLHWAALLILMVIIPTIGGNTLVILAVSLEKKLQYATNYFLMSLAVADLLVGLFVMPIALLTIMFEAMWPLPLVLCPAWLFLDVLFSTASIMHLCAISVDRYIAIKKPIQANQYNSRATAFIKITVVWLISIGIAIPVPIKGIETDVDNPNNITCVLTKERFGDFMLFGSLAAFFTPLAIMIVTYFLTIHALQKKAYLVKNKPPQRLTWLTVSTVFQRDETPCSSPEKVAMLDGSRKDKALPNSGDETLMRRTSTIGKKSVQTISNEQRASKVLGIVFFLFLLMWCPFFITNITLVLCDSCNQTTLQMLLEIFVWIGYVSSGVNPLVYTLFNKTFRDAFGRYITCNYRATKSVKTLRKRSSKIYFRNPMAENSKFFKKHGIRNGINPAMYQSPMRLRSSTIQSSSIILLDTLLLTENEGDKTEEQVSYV
Procedure Text: Displacement of [3H]-LSD from recombinant human 5-HT2BR expressed in HEK cell membranes at 10 uM after 90 mins by scintillation counting method relative to control
Condition Label: probe [3H]-LSD
Measured Endpoint: inhibition at 1.5 h, 10 µM (%)
Please state the figure in %; there is no need to write the unit.

Quick one: inhibition at 1.5 h, 10 µM for CCCCCCCCCCC[C@@H]1CCN[C@H](C(=O)NCC(O)CO)C1 (relative stereo) ?
15.1

###

System: 5-hydroxytryptamine receptor 2C (Homo sapiens) (UniProt P28335)
Sequence (P28335 whole entry): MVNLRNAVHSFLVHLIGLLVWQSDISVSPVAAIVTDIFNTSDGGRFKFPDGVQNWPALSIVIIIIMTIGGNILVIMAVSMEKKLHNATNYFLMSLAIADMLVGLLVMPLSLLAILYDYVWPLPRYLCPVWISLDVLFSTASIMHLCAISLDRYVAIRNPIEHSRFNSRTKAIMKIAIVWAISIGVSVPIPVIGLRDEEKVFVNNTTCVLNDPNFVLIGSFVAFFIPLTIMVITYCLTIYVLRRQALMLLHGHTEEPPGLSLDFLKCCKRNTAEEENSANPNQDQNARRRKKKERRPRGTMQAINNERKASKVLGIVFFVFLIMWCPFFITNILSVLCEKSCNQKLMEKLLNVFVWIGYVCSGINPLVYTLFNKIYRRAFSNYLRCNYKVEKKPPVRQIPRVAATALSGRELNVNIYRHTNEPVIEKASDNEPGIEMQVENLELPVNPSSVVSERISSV
Procedure Text: Positive allosteric modulation of human 5-HT2CR expressed in CHO cells assessed as 5-HT-induced intracellular calcium release at 1 nM preincubated for 15 mins followed by 5-HT addition by calcium-4 dye based FLIPR assay (reference value: 100%)
Type: functional, cell-based
Listed here: items and their measured Emax.
Your answer is read as %, so omit the unit and give the number.

Here are 8 molecules together with their reported answers.
{"columns": ["Molecule", "System", "Emax, %"],
 "data": [
  ["CCCCCCCCCCC[C@@H]1CCN[C@H](C(=O)NCCO)C1 (relative stereo)", "5-hydroxytryptamine receptor 2C (Homo sapiens) (UniProt P28335)", 108],
  ["CCCCCCCCCCC[C@@H]1CCN[C@H](C(=O)NC[C@@H](O)CO)C1", "5-hydroxytryptamine receptor 2C (Homo sapiens) (UniProt P28335)", 106],
  ["CCCCCCCCCCC[C@@H]1CCN[C@H](C(=O)N[C@@H](Cc2cc3ccccc3[nH]2)C(=O)OC)C1", "5-hydroxytryptamine receptor 2C (Homo sapiens) (UniProt P28335)", 102],
  ["CCCCCCCCCCC[C@H]1CCN[C@@H](C(=O)N[C@H](CO)[C@H](O)c2ccccc2)C1", "5-hydroxytryptamine receptor 2C (Homo sapiens) (UniProt P28335)", 93.9],
  ["CC1CCC(CC[C@H]2CCN[C@@H](C(=O)N[C@@H](CO)[C@@H](O)c3ccccc3)C2)CC1 (some centres undefined)", "5-hydroxytryptamine receptor 2C (Homo sapiens) (UniProt P28335)", 116],
  ["CCCCCCCCCCC[C@@H]1CCN[C@H](C(=O)N[C@H](C(=O)OC)[C@H](C)O)C1", "5-hydroxytryptamine receptor 2C (Homo sapiens) (UniProt P28335)", 102],
  ["CCCCCCCCCCC[C@@H]1CCN[C@H](C(=O)NC[C@H](O)CO)C1", "5-hydroxytryptamine receptor 2C (Homo sapiens) (UniProt P28335)", 114],
  ["CCCCCCCCCCC[C@H]1CCN[C@@H](C(=O)N[C@@H](CO)[C@@H](O)c2ccccc2)C1", "5-hydroxytryptamine receptor 2C (Homo sapiens) (UniProt P28335)", 102]
]}

Could you share which Emax value was measured for `CCCCCCCCCCC[C@@H]1CCN[C@H](C(=O)N[C@@H](CO)[C@@H](O)c2ccccc2)C1` ?
109

I'd like to know its Emax. The molecule in question is CCCCCCCCCCC[C@@H]1CCN[C@H](C(=O)NCCN2CCOCC2)C1 (relative stereo)
107

Request the reported Emax associated with `O=C(N[C@H](CO)[C@H](O)c1ccccc1)[C@@H]1C[C@H](C2CCCCC2)CCN1`
105

For `CCCCCCCCCCC[C@@H]1CCN[C@H](C(=O)N[C@@H](CO)C(=O)OC)C1` , what is its reported Emax?
99.6

Could you share which Emax value was measured for `CCCCCCCCCCC[C@@H]1CCN[C@H](C(=O)N[C@H](CO)[C@@H](C)O)C1` ?
111

Given `CCCCCCCCCCC[C@@H]1CCN[C@H](C(=O)N[C@H](CO)[C@H](O)c2ccccc2)C1` , state its recorded Emax.
85.1
